test.system: Recombinant human inducible NOS (iNOS) (Homo sapiens, UniProt P35228)
Sequence (P35228 whole entry): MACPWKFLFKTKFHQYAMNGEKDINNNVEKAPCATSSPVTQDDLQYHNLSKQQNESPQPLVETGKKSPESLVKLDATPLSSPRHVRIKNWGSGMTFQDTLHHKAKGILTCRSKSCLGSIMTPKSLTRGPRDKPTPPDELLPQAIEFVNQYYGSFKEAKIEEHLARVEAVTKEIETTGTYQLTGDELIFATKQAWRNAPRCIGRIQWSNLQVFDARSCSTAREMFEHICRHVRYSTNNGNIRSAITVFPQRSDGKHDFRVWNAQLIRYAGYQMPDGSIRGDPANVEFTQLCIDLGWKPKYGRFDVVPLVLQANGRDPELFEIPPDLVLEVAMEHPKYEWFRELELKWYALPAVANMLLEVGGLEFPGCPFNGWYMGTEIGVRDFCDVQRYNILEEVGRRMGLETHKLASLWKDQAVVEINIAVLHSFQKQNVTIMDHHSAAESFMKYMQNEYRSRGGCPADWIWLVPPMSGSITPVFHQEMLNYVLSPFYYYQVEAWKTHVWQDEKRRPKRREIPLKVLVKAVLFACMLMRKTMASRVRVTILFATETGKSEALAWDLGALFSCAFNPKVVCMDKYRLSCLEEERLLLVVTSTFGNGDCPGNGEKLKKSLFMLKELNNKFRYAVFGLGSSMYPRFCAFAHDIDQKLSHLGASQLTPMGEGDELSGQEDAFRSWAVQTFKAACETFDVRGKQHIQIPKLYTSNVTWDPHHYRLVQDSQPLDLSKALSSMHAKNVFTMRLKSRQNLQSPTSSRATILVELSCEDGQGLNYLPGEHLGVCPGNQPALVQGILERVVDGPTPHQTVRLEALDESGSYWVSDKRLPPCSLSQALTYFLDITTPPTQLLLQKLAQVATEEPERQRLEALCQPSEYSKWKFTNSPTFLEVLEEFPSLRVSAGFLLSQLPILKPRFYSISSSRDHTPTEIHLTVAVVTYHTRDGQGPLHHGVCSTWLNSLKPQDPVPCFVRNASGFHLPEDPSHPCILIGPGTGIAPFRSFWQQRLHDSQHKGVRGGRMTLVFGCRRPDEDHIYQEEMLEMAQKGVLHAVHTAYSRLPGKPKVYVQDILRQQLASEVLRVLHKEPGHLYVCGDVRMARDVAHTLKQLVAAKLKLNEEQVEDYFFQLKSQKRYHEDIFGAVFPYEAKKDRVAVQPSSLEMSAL
assay.info: Human iNOS enzyme assay, radiometric
Assay type: biochemical
measurement.context: human recombinant iNOS; values without parentheses; read-out: hiNOS IC50
Entries annotated with measured IC50
Give the value in µM but do not write µM after it.

Here's what some known entries look like.
{"columns": ["compound", "value.reported"],
 "data": [
  ["N=C(Nc1ccc2c(c1)CCCCN2C1CCNC1)c1cccs1 (centres unmarked)", 0.61],
  ["CN1CCC(N2CCCc3cc(NC(=N)c4cccs4)ccc32)C1 (single isomer, unassigned) [Example 57]", 40.4]
]}

So what does the record say about IC50 for CNCCN1C(=O)CCc2cc(NC(=N)c3cccs3)ccc21 ?
1.28

So what does the record say about IC50 for CN(C)CCN1CCCc2cc(NC(=N)c3cccs3)ccc21 ?
0.85

So what does the record say about IC50 for CC(CN1CCCc2cc(NC(=N)c3cccs3)ccc21)N1CCCC1 (centres unmarked) ?
19.4

###

Entries annotated with measured IC50
test.system: Nitric oxide synthase (endothelial, human recombinant) eNOS (Homo sapiens)
assay.info: Human eNOS enzyme assay ([3H]L-arginine to [3H]L-citrulline)
Type: biochemical
measurement.context: human recombinant eNOS; values without parentheses; read-out: heNOS IC50
Counter-ions that a name gives are not always drawn.
Give the value in µM but do not write µM after it.

Here's what some known entries look like.
{"columns": ["compound", "IC50 [µM]"],
 "data": [
  ["CN(C)CCN1CCCc2cc(NC(=N)c3cccs3)ccc21", 37.7],
  ["N=C(Nc1ccc2c(c1)CCCN2C1CCNC1)c1cccs1 (single isomer, unassigned; (+)) [Example 66, dihydrochloride]", 14.2]
]}

Next item in the queue.
So what does the record say about IC50 for CN1CCC(N2CCc3cc(NC(=N)c4cccs4)ccc32)CC1 ?
50.3

###

test.system: Recombinant human inducible NOS (iNOS) (Homo sapiens)
assay.info: Human iNOS enzyme assay, radiometric
Type: biochemical
measurement.context: human recombinant iNOS; values without parentheses; read-out: hiNOS IC50
Entries annotated with measured pIC50
Scale: negative log10 of molar concentration, which is what pIC50 denotes.

Here's what some known entries look like.
{"columns": ["compound", "observation.type", "value.reported"],
 "data": [
  ["CN1CCC(N2CCc3cc(NC(=N)c4cccs4)ccc32)CC1", "pIC50", 5.36],
  ["CN(C)CCN1CCCCc2cc(NC(=N)c3cccs3)ccc21.Cl.Cl [Example 28, dihydrochloride]", "pIC50", 4.45],
  ["CN1CCC(N2CCCc3cc(NC(=N)c4cccs4)ccc32)C1 (stereo not drawn) [Example 35]", "pIC50", 5.31]
]}

Next item in the queue.
API: value(readout=pIC50, system=Recombinant human inducible NOS (iNOS) (Homo sapiens)) for record CCN(CC)CCN1C(=O)CCc2cc(NC(=N)c3cccs3)ccc21
4.66

###

test.system: Recombinant human inducible NOS (iNOS) (Homo sapiens, UniProt P35228)
assay.info: Human iNOS enzyme assay, radiometric
Assay type: biochemical
measurement.context: human recombinant iNOS; values without parentheses; read-out: hiNOS IC50
observation.type: pIC50
Scale: negative log10 of molar concentration, which is what pIC50 denotes.

{"columns": ["compound", "value.reported"],
 "data": [
  ["CN1CCC(N2CCCc3cc(NC(=N)c4cccs4)ccc32)C1 (single isomer, unassigned) [Example 56]", 4.47],
  ["N=C(Nc1ccc2c(c1)C(C1CCNC1)C(=O)N2)c1cccs1 (stereo not drawn)", 5.15],
  ["CCNCCN1CCCc2cc(NC(=N)c3cccs3)ccc21", 4.78],
  ["N=C(Nc1ccc2c(c1)CCCC(=O)N2CCN1CCCCC1)c1cccs1", 5.09]
]}

So what does the record say about pIC50 for N=C(Nc1ccc2c(c1)CCCN2C1CCNCC1)c1cccs1 ?
5.18

So what does the record say about pIC50 for CN(C)CCN1CCCc2ccc(NC(=N)c3cccs3)cc21 ?
6.59

###

test.system: Nitric oxide synthase (endothelial, human recombinant) eNOS (Homo sapiens, UniProt P29474)
Sequence (P29474 2-1203): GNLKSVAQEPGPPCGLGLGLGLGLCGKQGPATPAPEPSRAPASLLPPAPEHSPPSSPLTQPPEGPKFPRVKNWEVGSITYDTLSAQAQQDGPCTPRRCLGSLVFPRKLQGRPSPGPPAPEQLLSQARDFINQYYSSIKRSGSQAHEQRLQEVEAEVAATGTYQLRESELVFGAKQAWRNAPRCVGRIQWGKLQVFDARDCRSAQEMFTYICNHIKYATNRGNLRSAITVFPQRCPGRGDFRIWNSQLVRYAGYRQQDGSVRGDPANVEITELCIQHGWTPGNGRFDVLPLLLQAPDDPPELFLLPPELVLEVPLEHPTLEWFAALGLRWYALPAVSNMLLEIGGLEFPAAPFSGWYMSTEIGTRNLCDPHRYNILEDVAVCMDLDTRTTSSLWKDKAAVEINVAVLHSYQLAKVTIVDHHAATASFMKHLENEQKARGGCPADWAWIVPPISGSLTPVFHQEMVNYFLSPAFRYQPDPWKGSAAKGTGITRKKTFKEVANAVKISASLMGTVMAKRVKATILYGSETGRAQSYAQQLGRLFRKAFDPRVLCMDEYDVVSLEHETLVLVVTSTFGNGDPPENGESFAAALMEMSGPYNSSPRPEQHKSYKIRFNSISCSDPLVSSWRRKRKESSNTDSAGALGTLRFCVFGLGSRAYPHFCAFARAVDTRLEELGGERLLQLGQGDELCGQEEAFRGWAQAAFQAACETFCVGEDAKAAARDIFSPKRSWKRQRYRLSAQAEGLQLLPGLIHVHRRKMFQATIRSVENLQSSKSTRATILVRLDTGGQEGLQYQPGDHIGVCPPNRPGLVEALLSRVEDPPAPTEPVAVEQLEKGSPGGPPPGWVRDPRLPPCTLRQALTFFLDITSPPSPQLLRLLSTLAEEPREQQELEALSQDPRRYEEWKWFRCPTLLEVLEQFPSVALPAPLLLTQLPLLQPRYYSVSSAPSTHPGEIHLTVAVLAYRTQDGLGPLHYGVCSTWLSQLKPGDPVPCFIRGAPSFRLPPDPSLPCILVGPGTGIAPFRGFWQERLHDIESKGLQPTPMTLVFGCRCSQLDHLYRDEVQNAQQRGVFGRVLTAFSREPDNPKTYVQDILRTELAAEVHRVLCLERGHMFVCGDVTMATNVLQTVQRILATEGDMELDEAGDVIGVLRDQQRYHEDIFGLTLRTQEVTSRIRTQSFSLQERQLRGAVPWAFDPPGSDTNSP
assay.info: Human eNOS enzyme assay ([3H]L-arginine to [3H]L-citrulline)
Format: biochemical
measurement.context: read-out: heNOS IC50
Entries annotated with measured pIC50
Scale: negative log10 of molar concentration, which is what pIC50 denotes.

{"columns": ["compound", "test.system", "observation.type", "value.reported"],
 "data": [
  ["CNCCN1CCCCc2cc(NC(=N)c3cccs3)ccc21", "Nitric oxide synthase (endothelial, human recombinant) eNOS (Homo sapiens, UniProt P29474)", "pIC50", 4.33],
  ["CN1CCCC1CCN1CCCCc2cc(NC(=N)c3cccs3)ccc21 (stereo not drawn)", "Nitric oxide synthase (endothelial, human recombinant) eNOS (Homo sapiens, UniProt P29474)", "pIC50", 4.51],
  ["N=C(Nc1ccc2c(c1)CCC(=O)N2CCN1CCCCC1)c1cccs1", "Nitric oxide synthase (endothelial, human recombinant) eNOS (Homo sapiens, UniProt P29474)", "pIC50", 4.60]
]}

API: value(readout=pIC50, system=Nitric oxide synthase (endothelial, human recombinant) eNOS (Homo sapiens, UniProt P29474)) for record CN(C)CCCN1CCCc2cc(NC(=N)c3cccs3)ccc21
4.65

API: value(readout=pIC50, system=Nitric oxide synthase (endothelial, human recombinant) eNOS (Homo sapiens, UniProt P29474)) for record CN1CCC(N2CCCCc3cc(NC(=N)c4cccs4)ccc32)C1 (stereo not drawn)
4.22

API: value(readout=pIC50, system=Nitric oxide synthase (endothelial, human recombinant) eNOS (Homo sapiens, UniProt P29474)) for record CCN(C)CCN1CCCc2cc(NC(=N)c3cccs3)ccc21
4.48

API: value(readout=pIC50, system=Nitric oxide synthase (endothelial, human recombinant) eNOS (Homo sapiens, UniProt P29474)) for record N=C(Nc1ccc2c(c1)CCCCN2C1CCNCC1)c1cccs1
4.18

API: value(readout=pIC50, system=Nitric oxide synthase (endothelial, human recombinant) eNOS (Homo sapiens, UniProt P29474)) for record CN1CCC(N2CCCc3cc(NC(=N)c4cccs4)ccc32)C1 (stereo not drawn)
4.56

API: value(readout=pIC50, system=Nitric oxide synthase (endothelial, human recombinant) eNOS (Homo sapiens, UniProt P29474)) for record CNCCCN1CCCc2cc(NC(=N)c3cccs3)ccc21
4.65

API: value(readout=pIC50, system=Nitric oxide synthase (endothelial, human recombinant) eNOS (Homo sapiens, UniProt P29474)) for record N=C(Nc1ccc2c(c1)CCCCN2CCN1CCCCC1)c1cccs1
4.25

API: value(readout=pIC50, system=Nitric oxide synthase (endothelial, human recombinant) eNOS (Homo sapiens, UniProt P29474)) for record CNCCN1CCCc2cc(NC(=N)c3cccs3)ccc21.Cl.Cl [Example 30, dihydrochloride]
4.39

API: value(readout=pIC50, system=Nitric oxide synthase (endothelial, human recombinant) eNOS (Homo sapiens, UniProt P29474)) for record CN(C)CCN1CCCc2cc(NC(=N)c3cccs3)ccc21
4.23

###

Entries annotated with measured pIC50
test.system: Nitric oxide synthase (neuronal, human recombinant) nNOS (Homo sapiens)
assay.info: Human nNOS enzyme assay ([3H]L-arginine to [3H]L-citrulline)
Assay type: biochemical
measurement.context: human recombinant nNOS; values without parentheses; read-out: hnNOS IC50
Scale: negative log10 of molar concentration, which is what pIC50 denotes.

Here's what some known entries look like.
{"columns": ["compound", "pIC50"],
 "data": [
  ["CNCCN1CCCCc2cc(NC(=N)c3cccs3)ccc21 [Example 36]", 6.42],
  ["CNCCN1CCCc2cc(NC(=N)c3cccs3)cc(F)c21.Cl.Cl [Example 52, dihydrochloride]", 6.52],
  ["N=C(Nc1ccc2c(c1)CCCN2CCN1CCOCC1)c1cccs1 [Example 64]", 6.17],
  ["CN1CCC(N2CCCc3cc(NC(=N)c4cccs4)ccc32)C1 (single isomer, unassigned) [Example 57]", 6.49],
  ["N=C(Nc1ccc2c(c1)CCCN2C1CCNCC1)c1cccs1 [Example 47]", 6.22]
]}

So what does the record say about pIC50 for CC(CN1CCCc2cc(NC(=N)c3cccs3)ccc21)N1CCCC1 (stereo not shown) [Example 16] ?
6.15

So what does the record say about pIC50 for Cl.Cl.N=C(Nc1ccc2c(c1)CCCN2CCN1CCCC1)c1cccs1 [Example 12, dihydrochloride] ?
6.51

###

test.system: Nitric oxide synthase (neuronal, human recombinant) nNOS (Homo sapiens, UniProt P29475)
Sequence (P29475 whole entry): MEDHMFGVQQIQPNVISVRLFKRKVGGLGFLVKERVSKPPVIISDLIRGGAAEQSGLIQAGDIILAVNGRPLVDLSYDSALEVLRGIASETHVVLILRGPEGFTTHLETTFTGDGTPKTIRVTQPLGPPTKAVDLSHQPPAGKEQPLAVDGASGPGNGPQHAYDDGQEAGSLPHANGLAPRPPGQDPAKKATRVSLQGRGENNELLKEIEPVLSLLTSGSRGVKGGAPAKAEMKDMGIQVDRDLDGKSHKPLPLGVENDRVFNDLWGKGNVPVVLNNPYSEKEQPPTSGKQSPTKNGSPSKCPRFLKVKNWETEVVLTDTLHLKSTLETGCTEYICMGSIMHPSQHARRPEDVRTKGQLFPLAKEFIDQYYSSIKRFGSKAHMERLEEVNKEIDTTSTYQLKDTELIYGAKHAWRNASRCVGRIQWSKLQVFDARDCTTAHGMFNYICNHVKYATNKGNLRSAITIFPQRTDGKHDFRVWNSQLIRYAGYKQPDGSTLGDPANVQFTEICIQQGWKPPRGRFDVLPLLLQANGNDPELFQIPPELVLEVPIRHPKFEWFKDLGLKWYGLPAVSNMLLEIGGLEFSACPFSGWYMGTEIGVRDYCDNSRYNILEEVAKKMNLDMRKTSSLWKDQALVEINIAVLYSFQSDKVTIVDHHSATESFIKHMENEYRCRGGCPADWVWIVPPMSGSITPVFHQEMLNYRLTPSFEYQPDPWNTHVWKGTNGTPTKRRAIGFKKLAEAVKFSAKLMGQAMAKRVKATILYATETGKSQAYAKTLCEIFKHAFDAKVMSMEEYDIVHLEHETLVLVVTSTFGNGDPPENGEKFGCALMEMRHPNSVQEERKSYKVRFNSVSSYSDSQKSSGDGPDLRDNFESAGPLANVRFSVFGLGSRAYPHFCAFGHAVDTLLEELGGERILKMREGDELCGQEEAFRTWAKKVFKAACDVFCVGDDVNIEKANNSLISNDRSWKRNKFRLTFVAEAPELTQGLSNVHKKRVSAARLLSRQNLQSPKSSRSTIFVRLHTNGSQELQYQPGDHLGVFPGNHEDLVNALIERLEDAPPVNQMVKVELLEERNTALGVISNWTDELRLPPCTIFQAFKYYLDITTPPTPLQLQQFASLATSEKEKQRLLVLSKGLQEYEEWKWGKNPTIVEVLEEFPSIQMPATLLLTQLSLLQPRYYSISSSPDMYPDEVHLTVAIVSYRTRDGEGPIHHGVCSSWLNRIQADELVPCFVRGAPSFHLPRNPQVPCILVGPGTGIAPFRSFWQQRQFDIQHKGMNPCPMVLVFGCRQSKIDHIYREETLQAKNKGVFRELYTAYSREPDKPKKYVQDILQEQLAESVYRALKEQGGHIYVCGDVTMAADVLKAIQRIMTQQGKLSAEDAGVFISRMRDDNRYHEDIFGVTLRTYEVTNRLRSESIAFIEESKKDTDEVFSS
assay.info: Human nNOS enzyme assay ([3H]L-arginine to [3H]L-citrulline)
Type: biochemical
measurement.context: human recombinant nNOS; values without parentheses; read-out: hnNOS IC50
Counter-ions that a name gives are not always drawn.
observation.type: pIC50
Scale: negative log10 of molar concentration, which is what pIC50 denotes.

Here's what some known entries look like.
{"columns": ["compound", "value.reported"],
 "data": [
  ["CN1CCC(C2C(=O)Nc3ccc(NC(=N)c4cccs4)cc32)CC1 (stereo not drawn) [Example 31]", 6.22],
  ["CN(C)CCCN1CCCc2cc(NC(=N)c3cccs3)ccc21 [Example 59]", 6.57],
  ["CN1CCCC1CCN1CCCc2cc(NC(=N)c3cccs3)cc(F)c21.Cl.Cl (stereo not drawn) [Example 55, dihydrochloride]", 7.10],
  ["CNC1CCC(N2CCc3cc(NC(=N)c4cccs4)ccc32)CC1 (stereo not drawn) [Example 70]", 6.68],
  ["N=C(Nc1ccc2c(c1)CCCN2C1CCNC1)c1cccs1 (single isomer, unassigned; (+)) [Example 66, dihydrochloride]", 8.00],
  ["CN(CCO)CCCN1CCCc2cc(NC(=N)c3cccs3)ccc21 [Example 69]", 7.11],
  ["N=C(Nc1ccc2c(c1)CCCC(=O)N2CCN1CCCC1)c1cccs1 [Example 26]", 5.00],
  ["CN1CCC(N2CCc3cc(NC(=N)c4cccs4)ccc32)CC1 [Example 37]", 5.91]
]}

Next item in the queue.
So what does the record say about pIC50 for CN(C)CCN1CCCc2ccc(NC(=N)c3cccs3)cc21 [Example 32] ?
6.35
